target: TPP riboswitch RNA; assay: Isothermal titration calorimetry (ITC) binding to TPP riboswitch RNA; settings: Table 4, fragment 5 analogs, pendant groups; ITC; read-out: Kd
measured_property: Kd (µM)

compound_structure_string	unit	Kd
NC(=O)c1ccc(Cl)nc1	µM	1800

(a) COC(=O)c1ccc(Br)nc1
(b) COC(=O)c1ccc(C)nc1
Consider entries a and b . Which has the numerically lower Kd? Write the label of whichever entry you select.
a

(a) CCOC(=O)c1ccc(Cl)nc1
(b) COC(=O)c1ccc([N+](=O)[O-])nc1
Field: lower recorded Kd (choose a or b ) Respond using the label that marks the chosen record.
b
(b: 390 µM, a: 600 µM)

(P) COC(=O)c1cnc(Cl)c(Cl)c1
(Q) COC(=O)c1cnc(Cl)cc1Cl
Select one: P or Q . Criterion: greater recorded Kd. Label of pick, please.
P
(P: 820 µM, Q: 93 µM)

Hello, the source for this data is patent US20240254107A1, in case you need it.
